For each record, write down the corresponding log10 IC50.
Test system: L1210
METHOD: In vitro growth inhibitory effect against L1210 murine leukemia cells was determined
Assay type: functional
CONDITION_NOTES: Mus musculus, read-out: ID50 (the source's name)
Values below are the log10 of the recorded IC50, with mg/L as the unit.

                      smiles_representation  measured_attribute  reported_value
0  CN(C)CCNc1ccc(NCCN(C)C)c2c1C(=O)c1ccccc1C2=O          log10 IC50           -1.10
1  CN(C)CCNc1ccc(NCCN(C)C)c2c1C(=O)c1cccnc1C2=O          log10 IC50           -0.80
2          O=C1c2cccnc2C(=O)c2c(O)ccc(O)c21          log10 IC50           -0.74
3  CCN(CC)CCNc1ccc(NCCN(CC)CC)c2c1C(=O)c1ccccc1C2=O          log10 IC50           -0.52

// for each compound below, give its log10 IC50
1. CN(C)CCCNc1ccc(NCCCN(C)C)c2c1C(=O)c1cccnc1C2=O
2. CCN(CC)CCNc1ccc(NCCN(CC)CC)c2c1C(=O)c1cccnc1C2=O

*A*
1. 0.23
2. 0.38
